Reported IC50 values follow for various compounds
Test system: human breast adenocarcinoma, MCF-7 cell line
assay remarks: MTT cytotoxicity assay, MCF-7
Assay type: cell-based
assay context: read-out: IC50 breast cancer MCF-7; MTT, 24 h incubation, n = 3

[
  {
    "smiles": "[Cl-].[Cl-].[Pt+2].[Ru+2].c1ccc(-c2nccnc2-c2ccccn2)nc1.c1cnc2c(c1)ccc1cccnc12.c1cnc2c(c1)ccc1cccnc12",
    "IC50 (µM)": 9.1
  },
  {
    "smiles": "[Cl-].[Cl-].[Pt+2].[Ru+2].c1ccc(-c2nc3ccccc3nc2-c2ccccn2)nc1.c1cnc2c(c1)ccc1cccnc12.c1cnc2c(c1)ccc1cccnc12",
    "IC50 (µM)": 4
  },
  {
    "smiles": "[Cl-].[Cl-].[Pt+2].[Ru+2].c1ccc(-c2nc3cc4ccccc4cc3nc2-c2ccccn2)nc1.c1cnc2c(c1)ccc1cccnc12.c1cnc2c(c1)ccc1cccnc12",
    "IC50 (µM)": 3.1
  }
]
